Origin of measurements: patent EP0359821A1

Assay: in vivo
Settings: mouse
VALUE KIND: LD50

The examples below pair each entry with its known result.
stdin: Data request, read-out LD50, for ClCC1CO1 (stereo not shown) [Beispiel II, 3-Chlor-1,2-epoxypropan]
stdout: 238 mg/kg

stdin: Data request, read-out LD50, for O=C(O)c1ccccc1 [Beispiel 31, Äthanolaminsalz der Benzoesäure]
stdout: 4100 mg/kg

stdin: Data request, read-out LD50, for O=C(O)c1ccccc1C(=O)O [Beispiel 55, Phthalsäuremonoäthanolaminsalz]
stdout: 1100 mg/kg

We next turn to a different compound, shown below.
stdin: Data request, read-out LD50, for OCCCl [Beispiel 45, 2-Chloräthanol]
stdout: 580 mg/kg
